Recorded values, source patent US7056679B2.

# Test system: E-tag antibody
# EXPERIMENT: ELISA analysis of phage on antibody raised against ETAG (positive control)
# RECORDED_CONDITIONS: peptide binding to E-tag antibody; phage ELISA units read at 405 nm
Listed here are sequences together with their documented ETAG (OD).
READOUT_KIND: ETAG (OD)

- BIOPOLYMER_SEQUENCE: "CYLSRLFRSGQGIGQFGHVE (DGI-2-20F-PP-A82; listed as Escherichia coli)"
  TESTED_SYSTEM: "E-tag antibody"
  READOUT_KIND: "ETAG (OD)"
  RESULT: "16.5 OD"
- BIOPOLYMER_SEQUENCE: "FSSVLGLLDRRGVPVVVGED (DGI-2-20F-3-C3; listed as Escherichia coli)"
  TESTED_SYSTEM: "E-tag antibody"
  READOUT_KIND: "ETAG (OD)"
  RESULT: "11.6 OD"
- BIOPOLYMER_SEQUENCE: "SVTISTSCRTGCPAGYLRRD (DGI-2-20F-PP-D2; listed as Escherichia coli)"
  TESTED_SYSTEM: "E-tag antibody"
  READOUT_KIND: "ETAG (OD)"
  RESULT: "30.8 OD"
- BIOPOLYMER_SEQUENCE: "GVVRAQQGLRYELQGDRYRLRRTQWLTVTYCSPSWAFAGC (DGI-2-40F-3-B116; listed as Escherichia coli)"
  TESTED_SYSTEM: "E-tag antibody"
  READOUT_KIND: "ETAG (OD)"
  RESULT: "6.5 OD"
- BIOPOLYMER_SEQUENCE: "YAMSSRECGIRNSGLILSMW (DGI-2-20F-PP-C9; listed as Escherichia coli)"
  TESTED_SYSTEM: "E-tag antibody"
  READOUT_KIND: "ETAG (OD)"
  RESULT: "31.6 OD"
- BIOPOLYMER_SEQUENCE: "GLEPVPFQTDKRIAMGWTREWLVNGYGAAHRRDARMQSGH (DGI-2-40F-3-D6; listed as Escherichia coli)"
  TESTED_SYSTEM: "E-tag antibody"
  READOUT_KIND: "ETAG (OD)"
  RESULT: "11.4 OD"
- BIOPOLYMER_SEQUENCE: "GRAGTSMTELVAWGFVQRVG (DGI-2-20F-PP-H10; listed as Escherichia coli)"
  TESTED_SYSTEM: "E-tag antibody"
  READOUT_KIND: "ETAG (OD)"
  RESULT: "13.0 OD"
- BIOPOLYMER_SEQUENCE: "VCGQRVARMQLNKTIRKLDS (DGI-2-20F-PP-A6; listed as Escherichia coli)"
  TESTED_SYSTEM: "E-tag antibody"
  READOUT_KIND: "ETAG (OD)"
  RESULT: "35.1 OD"
- BIOPOLYMER_SEQUENCE: "YGTAGLFLRRACTMSDPGDPLGRRGYTGWGVLWDEWVTGS (DGI-2-40F-3-C8; listed as Escherichia coli)"
  TESTED_SYSTEM: "E-tag antibody"
  READOUT_KIND: "ETAG (OD)"
  RESULT: "13.6 OD"
- BIOPOLYMER_SEQUENCE: "CCAWNGVGVGGLGWRVVVGP (DGI-2-20F-PP-H4; listed as Escherichia coli)"
  TESTED_SYSTEM: "E-tag antibody"
  READOUT_KIND: "ETAG (OD)"
  RESULT: "32.9 OD"
- BIOPOLYMER_SEQUENCE: "GLLFTSSPYQCFWVHCTLTMSPLSVLGDLSSTIGRMRASR (DGI-2-40F-3-C52; listed as Escherichia coli)"
  TESTED_SYSTEM: "E-tag antibody"
  READOUT_KIND: "ETAG (OD)"
  RESULT: "4.6 OD"
- BIOPOLYMER_SEQUENCE: "TANGHRYGGCGLWCKWMSGM (DGI-2-20R-4-E2; listed as Escherichia coli)"
  TESTED_SYSTEM: "E-tag antibody"
  READOUT_KIND: "ETAG (OD)"
  RESULT: "18.2 OD"
- BIOPOLYMER_SEQUENCE: "FRVALLSVSAGPCEGSGNT (DGI-2-20F-PP-H7; listed as Escherichia coli)"
  TESTED_SYSTEM: "E-tag antibody"
  READOUT_KIND: "ETAG (OD)"
  RESULT: "3.7 OD"
- BIOPOLYMER_SEQUENCE: "SLSLYWDAQVGCEVFWGYCV (DGI-2-20R-3-C10; listed as Escherichia coli)"
  TESTED_SYSTEM: "E-tag antibody"
  READOUT_KIND: "ETAG (OD)"
  RESULT: "14.7 OD"
- BIOPOLYMER_SEQUENCE: "GHGAGDWAAELFVCPVAFLTGFAWR (DGI-2-20R-4-H2; listed as Escherichia coli)"
  TESTED_SYSTEM: "E-tag antibody"
  READOUT_KIND: "ETAG (OD)"
  RESULT: "12.9 OD"
- BIOPOLYMER_SEQUENCE: "RRGVCEIFTGWCVGQTNERP (DGI-2-20R-4-H626; listed as Escherichia coli)"
  TESTED_SYSTEM: "E-tag antibody"
  READOUT_KIND: "ETAG (OD)"
  RESULT: "13.5 OD"
- BIOPOLYMER_SEQUENCE: "VQFAMTLSSRLWQHARHPLTDDAPPTVSFGTRRETLAGKA (DGI-2-40F-3-D3; listed as Escherichia coli)"
  TESTED_SYSTEM: "E-tag antibody"
  READOUT_KIND: "ETAG (OD)"
  RESULT: "0.9 OD"
- BIOPOLYMER_SEQUENCE: "SRELGKWGRLWQDWSSGNFS (DGI-2-20R-3-C11; listed as Escherichia coli)"
  TESTED_SYSTEM: "E-tag antibody"
  READOUT_KIND: "ETAG (OD)"
  RESULT: "18.9 OD"
- BIOPOLYMER_SEQUENCE: "SRGMAEAQFSAWPVLAVFPL (DGI-2-20F-PP-H8; listed as Escherichia coli)"
  TESTED_SYSTEM: "E-tag antibody"
  READOUT_KIND: "ETAG (OD)"
  RESULT: "32.4 OD"
- BIOPOLYMER_SEQUENCE: "LGNASSLWFLRSVQESGVR (LGNASSLIPFLRSVQESGVR; DGI-2-20F-3-C5; listed as Escherichia coli)"
  TESTED_SYSTEM: "E-tag antibody"
  READOUT_KIND: "ETAG (OD)"
  RESULT: "17.7 OD"
- BIOPOLYMER_SEQUENCE: "VQSGRDLGGLLRGGTGTEASP (DGI-2-20F-PP-D3; listed as Escherichia coli)"
  TESTED_SYSTEM: "E-tag antibody"
  READOUT_KIND: "ETAG (OD)"
  RESULT: "15.0 OD"
- BIOPOLYMER_SEQUENCE: "EVFVSVWVFRFRVMPVTPGGT (DGI-2-20F-PP-E6; listed as Escherichia coli)"
  TESTED_SYSTEM: "E-tag antibody"
  READOUT_KIND: "ETAG (OD)"
  RESULT: "4.1 OD"
- BIOPOLYMER_SEQUENCE: "SWACGLLWPGECGSQVARRG (DGI-2-20R-3-D127; listed as Escherichia coli)"
  TESTED_SYSTEM: "E-tag antibody"
  READOUT_KIND: "ETAG (OD)"
  RESULT: "15.4 OD"
- BIOPOLYMER_SEQUENCE: "SLECWAMPGMVVRLVGCDGP (DGI-2-20R-4-H112; listed as Escherichia coli)"
  TESTED_SYSTEM: "E-tag antibody"
  READOUT_KIND: "ETAG (OD)"
  RESULT: "12.3 OD"
- BIOPOLYMER_SEQUENCE: "KVWGCGARRGWERLGHLNQV (DGI-2-20F-PP-B10; listed as Escherichia coli)"
  TESTED_SYSTEM: "E-tag antibody"
  READOUT_KIND: "ETAG (OD)"
  RESULT: "27.1 OD"
- BIOPOLYMER_SEQUENCE: "VGHLLSRCAHHSPGMGASPYG (DGI-2-20F-PP-B11; listed as Escherichia coli)"
  TESTED_SYSTEM: "E-tag antibody"
  READOUT_KIND: "ETAG (OD)"
  RESULT: "40.8 OD"
- BIOPOLYMER_SEQUENCE: "RSYPRLCKQKGGVIGRMLPG (DGI-2-20F-PP-B2; listed as Escherichia coli)"
  TESTED_SYSTEM: "E-tag antibody"
  READOUT_KIND: "ETAG (OD)"
  RESULT: "35.9 OD"
- BIOPOLYMER_SEQUENCE: "RRTSADTDQLSRWEGAQAFSSLRSALSERLDSLRPGLPPS (DGI-2-40F-3-D9; listed as Escherichia coli)"
  TESTED_SYSTEM: "E-tag antibody"
  READOUT_KIND: "ETAG (OD)"
  RESULT: "15.8 OD"
- BIOPOLYMER_SEQUENCE: "GSVLERGCLEFSGFCFSLGH (DGI-2-20F-3-C1; listed as Escherichia coli)"
  TESTED_SYSTEM: "E-tag antibody"
  READOUT_KIND: "ETAG (OD)"
  RESULT: "14.0 OD"
- BIOPOLYMER_SEQUENCE: "FRMWVQSCFWGQPGTGCGEG (DGI-2-20R-3-D2; listed as Escherichia coli)"
  TESTED_SYSTEM: "E-tag antibody"
  READOUT_KIND: "ETAG (OD)"
  RESULT: "14.3 OD"
- BIOPOLYMER_SEQUENCE: "LLLPVRWRDAQPRSLLMEWI (DGI-2-20F-PP-F8; listed as Escherichia coli)"
  TESTED_SYSTEM: "E-tag antibody"
  READOUT_KIND: "ETAG (OD)"
  RESULT: "7.6 OD"
- BIOPOLYMER_SEQUENCE: "GITGLFCLCLRSSQSI (DGI-2-20F-PP-D6; listed as Escherichia coli) [DGI-2-20F-P0P-D6]"
  TESTED_SYSTEM: "E-tag antibody"
  READOUT_KIND: "ETAG (OD)"
  RESULT: "5.7 OD"
